System: Saccharomyces cerevisiae
Assay: protein stability index of tFT-peptide fusion (C-terminal peptide) (PSI (0-1 scale)); higher = more stable (slower turnover)
Conditions: genetic background: wild type; temperature: 30 C
Recorded protein stability index, one value per entry.

Sequence Data	protein stability index
DDYAQYLDQDSD [MAK21 C-terminal 12 aa]	0.671
RRDYWLSKGQAL [TRF5 C-terminal 12 aa]	0.725
GYKPIILYHVIH [YDL025W-A C-terminal 12 aa]	0.598
HNDNSGTVLGTA [RBD2 C-terminal 12 aa]	0.728
RSRKWKRRLFHL [PEX32 C-terminal 12 aa]	0.6
VHKDLDIKTVTL [PRO2 C-terminal 12 aa]	0.671
KDETPEDNLEDK [VBA3 C-terminal 12 aa]	0.653
FVKPGEICLREQ [RDH54 C-terminal 12 aa]	0.701
KNGKVDPLKNFK [DBP9 C-terminal 12 aa]	0.684
DPFDTNLSIKLS [YMR075C-A C-terminal 12 aa]	0.683
GFQTGSAKATSA [RPL37B C-terminal 12 aa]	0.697
AESDDKSDNYGA [PRP45 C-terminal 12 aa]	0.717

====

Recorded protein stability index, one value per entry.
Tested on: Saccharomyces cerevisiae
Test: protein stability index of tFT-peptide fusion (C-terminal peptide) (PSI (0-1 scale)); higher = more stable (slower turnover)
Conditions: genetic background: doa10 deletion; temperature: 30 C
Measurement Type: protein stability index

Sequence Data	Measured
PPSPAPLPDSLP	0.693
PWGSHLYYVVCI	0.183
PLPCFVLRLPVF	0.267
GWSRRFFCLFIV	0.0815
PPPLCSTCIRCC	0.175
FYLFPSLPLLLL	0.477
VFSFLYHVVPVL	0.324
RVFGWIEVEVEG	0.346
TVHVIVVCRELA	0.201
SDLQVMKLRSVC	0.185

====

Recorded protein stability index, one value per entry.
System: Saccharomyces cerevisiae
Test: protein stability index of tFT-peptide fusion (C-terminal peptide) (PSI (0-1 scale)); higher = more stable (slower turnover)
Details: genetic background: wild type; temperature: 30 C
Measurement Type: protein stability index

Sequence Data	Measured Target	Measurement Type	Measured
LRGGWVESCGGW	Saccharomyces cerevisiae	protein stability index	0.669
QTVFRQRLKEPF	Saccharomyces cerevisiae	protein stability index	0.644
DSVGVLVPRGFR	Saccharomyces cerevisiae	protein stability index	0.766
AAPPHLTSHPPL	Saccharomyces cerevisiae	protein stability index	0.811
RPPPSPPPIPSP	Saccharomyces cerevisiae	protein stability index	0.666
RVFRLDRRLQVV	Saccharomyces cerevisiae	protein stability index	0.3
TCFPDLLVLPAR	Saccharomyces cerevisiae	protein stability index	0.701
SGMGAIADENKE	Saccharomyces cerevisiae	protein stability index	0.635
RPKTLGNAREEG	Saccharomyces cerevisiae	protein stability index	0.708
RIHRRLIKNKRV	Saccharomyces cerevisiae	protein stability index	0.162
PSNLNASLASRV	Saccharomyces cerevisiae	protein stability index	0.655
PHPPPHPLFSRF	Saccharomyces cerevisiae	protein stability index	0.758
CPDGSGWLARGC	Saccharomyces cerevisiae	protein stability index	0.661
SIVRWLTSSLIH	Saccharomyces cerevisiae	protein stability index	0.787
GNSNDPALQPKQ	Saccharomyces cerevisiae	protein stability index	0.68
VQTHPFWFPTLL	Saccharomyces cerevisiae	protein stability index	0.573
QSILVCELGMEG	Saccharomyces cerevisiae	protein stability index	0.67
CASVCCFFAWIV	Saccharomyces cerevisiae	protein stability index	0.416
SVPLTLLPPLFP	Saccharomyces cerevisiae	protein stability index	0.694

====

System: Saccharomyces cerevisiae
Test: protein stability index of tFT-peptide fusion (C-terminal peptide) (PSI (0-1 scale)); higher = more stable (slower turnover)
Details: genetic background: wild type; temperature: 30 C
Measurement Type: protein stability index

Sequence Data	Measured
LPPLPPRSPPPP	0.731
LFPSPFVASFPP	0.765
PRDSLMRLDCRL	0.691
GENVVPGLHTQV	0.675
PHPPPPSPPLPT	0.709
ALSRSCPSGAFL	0.727
FWAWEGCTRALM	0.681
IKKKKKKKKKRD	0.652
MAEGRARLWGPS	0.701
LAESTSYNQRRP	0.701
KKKKLKQKKNKQ	0.655
IHSPSAYLQPSF	0.761
FVLPLAPAGIAS	0.582
NEPNIRDRSIFS	0.688
TPGDAVICSFYI	0.642
RLLAGLPLGGGN	0.656
APEAHYRGCPPH	0.681
RPVSQRRRKHIG	0.645
PALCGGFFLVGV	0.636
GEILTLYLLPRL	0.705
RWTRFISLTGTG	0.637
RGGVAGQPDAGR	0.666
FLGGSRVGRGDG	0.694
PFFFLWSLYFFL	0.51
SKRIKIEFYVNQ	0.688
GKSTFWTELAII	0.648
EALVVLGVGFFG	0.651
FLPLLFFFFFRF	0.485
YQDDGRRPGFVI	0.675
PPRCLLPPPSRS	0.79
PPPPPPPPHSPP	0.672
PVSPCSQRGIFV	0.692
THGMFVFSPPWF	0.785
KRTKKKTKDERK	0.644
PLPFPPPLPPPT	0.681
TPRPPPSSFLSL	0.679
ARTWVVLLICGH	0.423
RRGTRGGGGRER	0.638
PCPPNSPPLSPT	0.71
WGRENLTRVKLE	0.372
SFFFFSPFSRLS	0.693

====

Test system: Saccharomyces cerevisiae
Assay: protein stability index of tFT-peptide fusion (C-terminal peptide) (PSI (0-1 scale)); higher = more stable (slower turnover)
Settings: genetic background: wild type; temperature: 30 C
Recorded protein stability index, one value per entry.

Sequence Data	protein stability index
HVTHRAVNVPLE	0.674
SLDQGRLRRLVG	0.641
PPLLPPTPPLSA	0.625
SLSPPSPTPSHS	0.735
RQQRKIYTDKQD	0.754
APVWSINKTRVM	0.671
SWIQLDAWETRS	0.696
GGCSRYVLILFD	0.686
LILFQYFYLPMT	0.517
GVDDGGGCCRVR	0.773
QKKELKTKKKER	0.663
IGKLDYVCWRVL	0.602
AKACHGGSTLPG	0.609
CFVIFFSSPGVC	0.583
VVPWLGYVSCFS	0.465
FVLISSPLLRSF	0.623
WSIWRLPSFEWV	0.741
AWLLWGPVLRGI	0.694
SRIALLSLGAIL	0.707

====

Tested on: Saccharomyces cerevisiae
Test: protein stability index of tFT-peptide fusion (C-terminal peptide) (PSI (0-1 scale)); higher = more stable (slower turnover)
Conditions: genetic background: wild type; temperature: 30 C
I would appreciate it if you labelled entries true when protein stability index is 0.5 or higher, otherwise false.

Sequence Data	Classification
GSWMSGLWQTPV	true
LLFLLGTLYHPY	true
CSRVVGLFFLVV	false
FPRGPLPPAPSP	true
AVCGSISSWMWF	true
KRARVIWKLVVV	false
IDCCAGDSMAGI	true
GLLAFVCISHTS	false
ALFLLWVVMHDV	false
LPIKRLWKGLHG	true

====

Recorded protein stability index, one value per entry.
Tested on: Saccharomyces cerevisiae
Test: protein stability index of tFT-peptide fusion in deletion strain of DAS1 (PSI (0-1 scale)); higher = more stable (slower turnover)

Sequence Data	protein stability index
LKILRKKMNHQN	0.662
ARWRVSLWRGAS	0.687
LIILRQKMNHQN	0.661
VRGAVGGWRLSG	0.67
RLIQPLPIQFLN	0.593
ERWRVGLWRGAS	0.741
WRWRVGLWRGAS	0.764
CRGAVGGWRLVG	0.647
CTSCGYKFRTNF	0.712
KKHKKGQKQYIN	0.678

====

Tested on: Saccharomyces cerevisiae
Experiment: protein stability index of tFT-peptide fusion (C-terminal peptide) (PSI (0-1 scale)); higher = more stable (slower turnover)
Conditions: genetic background: das1 deletion; temperature: 30 C
Recorded protein stability index, one value per entry.
Measurement Type: protein stability index

Sequence Data	Measurement Type	Measured
FSFSFWALLWFP	protein stability index	0.438
LVYLVCAYSECE	protein stability index	0.275
FLSLVIVLRWFL	protein stability index	0.255
FCSPFFFFLFRL	protein stability index	0.357
AFLLVLFCCVSC	protein stability index	0.252
VFWISRLYLASY	protein stability index	0.442
SMGVLITYLVQV	protein stability index	0.324
FLPSLSLPLLLF	protein stability index	0.425
ICQFFFFALLSF	protein stability index	0.164
LNQRGKRKYLIM	protein stability index	0.656
RPPPTPRSVLLN	protein stability index	0.668
CLCLICFLCWFA	protein stability index	0.408
ALLWEFVPCSVR	protein stability index	0.354
KCVVMFFLRSVS	protein stability index	0.529
HLAQYSSSLHLM	protein stability index	0.653
WFALFYFLVSAF	protein stability index	0.205
VLLCGCVWLWWG	protein stability index	0.371
ALRGLWFPFSCL	protein stability index	0.68
VECVCVVVVRRM	protein stability index	0.313

Reference source for all entries: the supplement of paper PMC10724198
